system: SF-295 CNS; experiment: NCI-60 one-dose screen, 48 h (100 = growth as untreated, 0 = no growth, -100 = all killed); conditions: 10 µM unless noted
Compounds without any hit were thinned out: in the full panel of roughly 83,000, 20% have a hit.
Consider the following compounds; for each one, report its growth.
Only the number, expressed in %, is required.

Quick one: growth for "Cc1cc(C)cc(OCC(=O)O)c1" ?
96.5

Given the entry CC(C)N1CC(=O)N2CSCC2C1=O (stereo not drawn) , report its measured growth.
105

Field request: growth | item: "c1ccc(Nc2ccccn2)nc1"
99.3

----------
test system: MOLT-4 leukemia; test: NCI-60 one-dose screen, 48 h; conditions: 10 µM unless noted
This is part of a sample that, as a whole, favours compounds with a hit. Of some 83,000 tested, about 20% had one in any assay. Activity calls are given as the source filed them. Rule for the calls: active = growth percent below 10; inactive = the rest.
The reply should be one of these categories: active, inactive

Returns: the outcome recorded for "NS(=O)(=O)c1cc(=O)[nH]c(=O)[nH]1" in this assay.
inactive

Could you please tell me the result logged for "CC(=O)c1cccc(O)c1" in this assay?
inactive

# outcome recorded in this test, key = "O=C(O)CC1=CCCCC1"
inactive

Hi team, can someone confirm the assay call for "Cc1ccc(C2CCCCC2)cc1Br" ?
inactive

Per the assay record, what outcome was assigned to "O=C1CSc2ccccc2N1" ?
inactive

What is the recorded call for this molecule in the test? "CC(C)c1ccc(C(=O)OCCCl)cc1"
inactive

Lab log entry: "Cc1ccc(S(=O)(=O)Oc2ccc3sc4c(CO)ccc(NCCN(C)C)c4c(=O)c3c2)cc1" — outcome as called in the assay?
active

Write down the call the test reported for this molecule. Item: "O=C(NCCc1ccccc1)/C(=C\c1ccc(Cl)cc1Cl)NC(=O)c1ccccc1"
inactive

Test call, this molecule: "CCCCCCCCCc1ccc(OC(C)=O)cc1"
inactive

What did this assay record as the result for "CC(=O)/C(C)=N\OC(=O)Nc1ccccc1" ?
inactive

Hello, I am checking results. What call was entered for "CC(=O)Oc1c(Cl)cccc1-c1ccccc1" ?
inactive

Please indicate how the test categorized "OCCOc1ccc(-c2cc(-c3ccccn3)nc(-c3ccccn3)c2)cc1" .
active

Assay outcome for "O=C(c1cccc(C(=O)c2ccc3c4c(cccc24)C(=O)N(c2ccccc2)C3=O)c1)c1ccc2c3c(cccc13)C(=O)N(c1ccccc1)C2=O" : what was it?
inactive

Which result was noted for this molecule in the test: CC(=O)NC(CCc1ccc(Cl)c(Cl)c1)c1cccc(O)c(=O)c1 (stereo not drawn)
active

Record request — test call for "CC(C)(N)CO[C@H]1C[C@H]2CC[C@@]1(C)C2(C)C"
inactive

Assay result, entry N#CCCN1C(=O)CCC1C(=O)O (stereo not drawn) — outcome?
active

// outcome(item) with item = "O=Cc1ccc(F)cc1"
inactive

Which outcome was entered for the molecule "S=c1nc2[nH]c3ccccc3c2n[nH]1" in this test?
inactive
